Entries annotated with measured TGI
- Tested on: OVCAR-8 ovarian
- assayText: NCI tumour cell line growth inhibition, 48 h
Where a SMILES comes first, the peptide text is derived from it. [ ]: non-standard residue; d: D form. The star is where a group is joined. Cbz = O=C(OCc1ccccc1)*; Aib = CC(C)(N)C(=O)O; OBn = c1ccc(CO*)cc1
measurementKind: TGI

molecule	studyTarget	resultValue
CCCCCCCCCCCC[N+]12CC[N+](CCN)(CC1)CC2	OVCAR-8 ovarian	> 100 µM
CN(C)Cc1cc(C(=O)/C=C/c2ccc([N+](=O)[O-])cc2)cc(CN(C)C)c1O	OVCAR-8 ovarian	> 100 µM
COc1cc(C2c3cc4c(cc3[C@@H](Nc3ccccc3)C3COC(=O)[C@H]23)OCO4)cc(OC)c1O (some centres not stated)	OVCAR-8 ovarian	> 19.7 µM
CCOC(=O)CC/C(=N/Nc1ccc(Cl)cc1[N+](=O)[O-])C(=O)OCC	OVCAR-8 ovarian	> 100 µM
CC(C)N1CCN(c2ccc(OCC3COC(Cn4cncn4)(c4ccc(Cl)cc4Cl)O3)cc2)CC1 (configuration not stated)	OVCAR-8 ovarian	39.2 µM
CCOC(=O)C(NC(=O)CC)(N1CCN(c2cc3c(cc2F)c(=O)c(C(=O)O)cn3C2CC2)CC1)C(F)(F)F (configuration not stated)	OVCAR-8 ovarian	> 100 µM
CNc1cc2oc(=O)cc(C)c2cc1C	OVCAR-8 ovarian	> 100 µM
COc1cc(/C=C2\CCCCC3=C2N=C2SC(C)=CN2C3c2cc(OC)c(OC)c(OC)c2)cc(OC)c1OC (configuration not stated)	OVCAR-8 ovarian	> 100 µM
Cc1ccc2c(c1)c1ccc3c(c1n2C)C(=O)C=CC3=O	OVCAR-8 ovarian	6.01 µM
COc1c2occc2c(N)c2ccc(=O)oc12	OVCAR-8 ovarian	> 100 µM
CCCCCCCCc1cc2c(O)c(c1)Cc1cc(CCCCCCCC)cc(c1O)Cc1cc(CCCCCCCC)cc(c1O)Cc1cc(CCCCCCCC)cc(c1O)Cc1cc(CCCCCCCC)cc(c1O)Cc1cc(CCCCCCCC)cc(c1O)C2	OVCAR-8 ovarian	> 100 µM
CC(NC(=O)C(C)(C)NC(=O)C(CC(=O)OCc1ccccc1)NC(=O)OCc1ccccc1)C(N)=O (configuration not stated) (Cbz-Asp(OBn)-[Aib]-Ala-NH2; configuration not given here)	OVCAR-8 ovarian	> 100 µM

----------
- Test system: HCT-116 colon
- assayText: NCI tumour cell line growth inhibition, 48 h
Quick list: TGI per entry.

compound	TGI
C[N+](C)(C)CC(=O)N/N=C(/Cc1cc(=O)oc2cc(O)ccc12)C(=O)Nc1ccc(Cl)cc1	> 100 µM
CCOC(=O)c1c(C)c2c(n1Cc1ccccc1)CSCC2=O	31.9 µM
Clc1sc(Cl)c2c1[C@@H](Cl)C[C@@H]2Br	> 100 µM
CSC[C@H](NC(=O)COc1cccc2cnccc12)C(=O)NC(Cc1ccccc1)C(O)C(=O)N1CSC[C@H]1C(=O)NC(C)(C)C (stereo not given in full)	> 100 µM
CCN(C(=O)N[C@@H](C)C(=O)N[C@@H](Cc1ccccc1)C(=O)OC)c1ccccc1	> 100 µM
COC(=O)c1c(C)cc(OC)c(C/C=C(\C)CCCc2coc(C=C(C)C)c2)c1OC	> 100 µM
O=C1c2cccc3cccc(c23)C(=O)N1CCCNCCCCNCCCNCCCN1C(=O)c2cccc3cccc(c23)C1=O	1.57 µM
O=C(O)c1cccc(S(=O)(=O)NN2C(=O)CSC2c2ccc(Cl)cc2Cl)c1 (stereo not given)	83.1 µM
Cc1nc2c(N)ncnc2o1	> 100 µM
COc1cc2c(cc1OCCCN1C(=O)c3cccc4cccc(c34)C1=O)N=C[C@@H]1CCCN1C2=O	> 100 µM

----------
- Tested on: CCRF-CEM leukemia
- assayText: NCI tumour cell line growth inhibition, 48 h
// reported TGI for each item listed

compound	TGI
N#CC(c1ccccc1)N(CCOCCOCCN(C(=O)c1ccccc1)C(C#N)c1ccccc1)C(=O)c1ccccc1 (stereo not given)	> 100 µM
O=C1c2cccc3cccc(c23)C(=O)N1CCCNCCCCNCCCNCCCN1C(=O)c2cccc3cccc(c23)C1=O	> 100 µM
COc1cc(Nc2ccc3c(c2)CCC3)nc(OC)n1	> 100 µM
C[N+](C)(C)CC(=O)N/N=C(/Cc1cc(=O)oc2cc(O)ccc12)C(=O)Nc1ccc(Cl)cc1	> 100 µM
NNc1ncnc2nc[nH]c12	> 100 µM
CCOc1c(OC)cc(-c2nc3n(n2)C(=O)C(CC)S3)cc1OC (stereo not given)	> 10 µM
CC[C@]1(O)C[C@H]2CN(CCc3c([nH]c4ccccc34)C(C(=O)OC)(c3cc4c(cc3OC)N(C)[C@H]3[C@@](O)(C(=O)OC)[C@H](OC(C)=O)[C@]5(CC)[C@@H]6C[C@@H]6CN6CC[C@]43[C@@H]65)C2)C1 (stereo not given in full)	> 12.9 µM
C=C(C)C(C1C=C(CCC(C=O)=C(C)C)C(=O)O1)C1(OC)C=C(C)C(=O)O1 (stereo not given)	> 100 µM
Cc1ccc(/C=C2/N=C(N/N=C\C(O)C(O)C(O)C(O)CO)NC2=O)cc1 (stereo not given)	> 100 µM
CC12c3c4ccc(C=O)c3Oc3ccc(C=O)c(c31)Oc1ccc(C=O)c(c12)O4	> 25 µM

----------
- Test system: OVCAR-5 ovarian
- assayText: NCI tumour cell line growth inhibition, 48 h
# reported GI50; entries follow

lineNotation	studyTarget	GI50
CCN(CCNS(C)(=O)=O)c1ccc(N)c(C)c1	OVCAR-5 ovarian	13.6 µM
CCOC(=O)c1c(C)c2c(n1Cc1ccccc1)CSCC2=O	OVCAR-5 ovarian	20.9 µM
C=C(CN(C)Cc1ccccc1)c1ccc(NC(=O)c2ccc(C(=C)CN(C)Cc3ccccc3)cc2)cc1	OVCAR-5 ovarian	> 100 µM
Cc1nc2c(Br)cc(Br)cc2c(=O)n1-c1nnc(-c2cccc(Cl)c2Cl)c(N)n1	OVCAR-5 ovarian	26.6 µM
C[C@H](CCOc1cccc(CC(=O)O)c1)N(Cc1cccc(C(F)(F)F)c1Cl)CC(c1ccccc1)c1ccccc1	OVCAR-5 ovarian	13.4 µM

----------
- System: EKVX NSCLC
- assayText: NCI tumour cell line growth inhibition, 48 h
We begin with a simple list: items and their reported GI50.
measurementKind: GI50

lineNotation	studyTarget	resultValue
CN(C)CCN1CCC(Cc2ccccc2)CC1	EKVX NSCLC	> 80 µM
C=C(C)[C@@H]1CC[C@]2(CN)CC[C@]3(C)[C@H](CC[C@@H]4[C@@]5(C)CCCNC(C)(C)[C@@H]5CC[C@]43C)[C@@H]12	EKVX NSCLC	1.77 µM
Cc1nc2sccn2c1-c1nc2sccn2c1/C=C1/C(=O)Nc2ccccc21	EKVX NSCLC	7.45 µM
C=C(CN(C)Cc1ccccc1)c1ccc(NC(=O)c2ccc(C(=C)CN(C)Cc3ccccc3)cc2)cc1	EKVX NSCLC	73.3 µM
O=c1cccc(C#CC#C[C@@H]2O[C@H]2CO)o1	EKVX NSCLC	1.79 µM

----------
Catalogue of TGI values
- System: OVCAR-3 ovarian
- assayText: NCI tumour cell line growth inhibition, 48 h
measurementKind: TGI (µM)

compound	measurementKind	endpointUnit	limitOperator	resultValue
C=CCn1c(=O)ccn(/C(=C/C(=O)OCC)C(=O)OCC)c1=O	TGI	µM	=	18.2
COc1ccc(-c2c(C#N)c(N3CCOCC3)nc3[nH]c(=S)[nH]c(=S)c23)cc1OC	TGI	µM	>	100
COc1cc(C2c3cc4c(cc3[C@@H](Nc3ccccc3)C3COC(=O)[C@H]23)OCO4)cc(OC)c1O (stereo not given in full)	TGI	µM	=	7.34
CCOC(=O)c1c(C)c2c(n1Cc1ccccc1)CSCC2=O	TGI	µM	=	46.2
[N-]=[N+]=CC(=O)OC(CCl)CCl	TGI	µM	>	100
O=C(O)c1cccc(S(=O)(=O)NN2C(=O)CSC2c2ccc(Cl)cc2Cl)c1 (stereo not given)	TGI	µM	>	100
CC1OC(O[C@H]2C3C=CO[C@@H](OC4OC(CO)C(O)C(O)C4O)C3[C@@]3(COC(=O)/C=C/c4ccccc4)O[C@@H]23)C(O)C(O)C1O (stereo not given in full)	TGI	µM	>	100
CCOC(=O)C(Br)=C1OC(=O)c2ccccc2-c2ccccc21 (mixture of isomers)	TGI	µM	=	35.9
COC(=O)c1ccccc1CC1Cc2cccc(C)c2C1=O (stereo not given)	TGI	µM	>	100
c1ccc2c(c1)CCc1c(-c3ccncc3)n[nH]c1-2	TGI	µM	=	33.3

----------
- Tested on: MCF7 breast
- assayText: NCI tumour cell line growth inhibition, 48 h
Reported TGI values for a set of compounds

compound	TGI
O[C@H]1[C@H](O)[C@@H](O)CN2CC[C@H](O)[C@H]12	> 100 µM
C=CCn1c(=O)ccn(/C(=C/C(=O)OCC)C(=O)OCC)c1=O	17.1 µM
O=C(CNc1ccc(Cl)cc1Cl)Nn1c(-c2ccccc2)nc2ccccc2c1=O	27.4 µM
O=C(CCSC1=NCCCN1)c1ccc(F)cc1	20.4 µM
[N-]=[N+]=CC(=O)OC(CCl)CCl	> 100 µM
CC[C@]1(O)C[C@H]2CN(CCc3c([nH]c4ccccc34)C(C(=O)OC)(c3cc4c(cc3OC)N(C)[C@H]3[C@@](O)(C(=O)OC)[C@H](OC(C)=O)[C@]5(CC)[C@@H]6C[C@@H]6CN6CC[C@]43[C@@H]65)C2)C1 (some centres undefined)	> 14.3 µM
C=C(C)[C@H]1C2=CC(C(=O)OC)=C(C[C@H](C(=C)C)[C@@H](O)[C@@H](O)C3=C[C@H]1OC3=O)O2	> 100 µM
COc1cc(C=O)ccc1O	> 100 µM
COc1ccc(/C=C\c2cc(OC)c(OC)c(OC)c2)cc1OCC(=O)O	> 100 µM
